Target: T1, EsCas13d, nuclease-dead (Eubacterium siraeum, UniProt B0MS50, R295A;H300A;R849A;H854A)
T1 sequence: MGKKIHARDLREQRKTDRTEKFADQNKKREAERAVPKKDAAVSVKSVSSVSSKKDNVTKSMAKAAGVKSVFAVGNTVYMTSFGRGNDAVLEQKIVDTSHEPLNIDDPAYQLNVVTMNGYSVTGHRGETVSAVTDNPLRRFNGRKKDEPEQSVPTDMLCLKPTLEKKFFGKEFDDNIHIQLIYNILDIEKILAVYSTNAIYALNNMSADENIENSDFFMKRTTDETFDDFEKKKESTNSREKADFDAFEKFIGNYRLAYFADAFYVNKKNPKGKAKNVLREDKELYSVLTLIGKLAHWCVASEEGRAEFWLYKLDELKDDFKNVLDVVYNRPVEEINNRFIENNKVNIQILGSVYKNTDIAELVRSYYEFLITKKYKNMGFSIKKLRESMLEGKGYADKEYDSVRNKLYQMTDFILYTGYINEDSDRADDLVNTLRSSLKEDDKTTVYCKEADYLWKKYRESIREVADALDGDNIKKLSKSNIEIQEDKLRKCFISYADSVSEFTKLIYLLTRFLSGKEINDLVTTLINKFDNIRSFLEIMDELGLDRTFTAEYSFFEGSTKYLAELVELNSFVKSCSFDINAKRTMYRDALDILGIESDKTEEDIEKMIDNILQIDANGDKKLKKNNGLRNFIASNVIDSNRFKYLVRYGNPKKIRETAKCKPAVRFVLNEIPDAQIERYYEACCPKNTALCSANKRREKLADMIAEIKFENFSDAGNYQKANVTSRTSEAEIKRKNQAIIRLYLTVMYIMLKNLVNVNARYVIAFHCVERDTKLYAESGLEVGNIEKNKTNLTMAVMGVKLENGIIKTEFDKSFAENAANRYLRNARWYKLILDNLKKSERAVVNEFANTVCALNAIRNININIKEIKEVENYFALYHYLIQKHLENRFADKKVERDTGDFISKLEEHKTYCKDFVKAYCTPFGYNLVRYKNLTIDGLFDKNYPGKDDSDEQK
Assay: crRNA (strand 1, pre-loaded); Mg2+; 40 mM Tris-HCl pH 7.5, 150 mM NaCl, 6 mM MgCl2, 1 mM DTT, 0.1% Tween-20, 0.2 mg/ml BSA; 25 C; 10 min per concentration, then washed
Conditions: tags: His6-TwinStrep-SUMO cleaved; N-terminal SNAP kept (SNAP-Surface 488); label: 3' end held by stalled T7 RNA polymerase
Measured property: pKd
Value format note: pKd is -log10 of concentration (mol/L); just state the number.

target 2 MT 5'PFS UGC 3'PFS CAG (mixed) RNA 1: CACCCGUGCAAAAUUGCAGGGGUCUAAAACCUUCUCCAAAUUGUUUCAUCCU RNA 2: GGGAAUGGAUCCACAUCUACGAAUUCUGCAGGAUGAAACAAUUUGGAGAAGCAGAGAUCGGAAGAGCACACGU; 7.79

The binder target 2 MT 5'PFS UCU 3'PFS UGC (mixed) RNA 1: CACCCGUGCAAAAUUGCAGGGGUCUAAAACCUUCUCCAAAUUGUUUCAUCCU RNA 2: GGGAAUGGAUCCACAUCUACGAAUUCUCUAGGAUGAAACAAUUUGGAGAAGUGCAGAUCGGAAGAGCACACGU showed pKd equal to 7.93

The binder target 1 G5U,G17C (mixed) RNA 1: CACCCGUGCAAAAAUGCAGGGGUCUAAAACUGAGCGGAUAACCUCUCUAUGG RNA 2: GGGAAUGGAUCCACAUCUACGAAUUCGUACCAUACAGAGGUUAUCCUCUCACCGAGAUCGGAAGAGCACACGU showed pKd equal to 7.10

The binder target 1 insC 3' of 22,insG 3' of 4 (mixed) RNA 1: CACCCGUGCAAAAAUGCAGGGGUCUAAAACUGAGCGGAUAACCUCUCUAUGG RNA 2: GGGAAUGGAUCCACAUCUACGAAUUCGUACCCAUAGAGAGGUUAUCCGCGUCACCGAGAUCGGAAGAGCACACGU showed pKd equal to 7.89
